test system: RXF 631; assay: NCI tumour cell line growth inhibition, 48 h
The source made the active and inactive calls. Cut-off read from the data, not from the text of the source: active = GI50 up to about 1.1 µM and inactive = higher.
API: response.call in t (active), f (inactive)

What did this assay record as the result for CN(C)C(=N/O)/C(=N\O)N(C)C ?
f

Entry NC1=NN(c2ccccc2)C(=O)C1/C(=N\NC(=O)c1cc2ccccc2cc1O)C(=O)Nc1ccc(Cl)cc1 (stereo not given) : call = ?
f

Just curious, what result did O=C1/C(=C/c2ccccc2Cl)COc2ccccc21 get here?
f

Hello, I am checking results. What call was entered for O=CCCCC(Sc1ccccc1)Sc1ccccc1 ?
f

What did the test return for COC(=O)C(C(=O)c1ccccc1)C(C(=O)C(=O)Nc1ccc(OC)cc1OC)C(=O)C(=O)c1ccc(C)cc1 (stereo not given) ?
f

Answer briefly: the call reported for COc1cc([C@@H]2c3cc4c(cc3[C@@H](NC(=O)c3ccc([N+](=O)[O-])cc3)C3COC(=O)[C@@H]32)OCO4)cc(OC)c1O (stereo not given in full) in this assay.
t

Returns: the outcome recorded for COc1ccccc1C12OC(=O)C1(C)Oc1ccccc1C2=O (stereo not given) in this assay.
f

Assay result, entry O=C(CCc1nnc(S)[nH]1)NC12CC3CC(CC(C3)C1)C2 — outcome?
f

Record request — test call for CN(C)C(=S)/N=c1\ssc(=S)n1Cc1ccncc1
f

Record lookup: outcome of this test for CCC(/C(=N/NC(=O)C[N+](C)(C)C)c1ccccc1)C1OC(=O)c2ccccc21 (stereo not given) ?
f

Given CCOC(=O)N1CCC(=O)C(CNC23CC4CC(CC(C4)C2)C3)C1 (stereo not given) , state the outcome it received in this test.
f

What classification did COc1ccccc1/C=C1\CCC(CN2CCOCC2)C1=O (stereo not given) end up with in this test?
f

Tell me the recorded outcome of this test for C[C@@]1(O)CC[C@]2(C)C3CCCC3[C@H]12 (stereo not given in full) .
f

Any idea what this test logged for O=C[C@]12CC=C3OC4OC5(CCCCC5)OC4[C@H]3[C@H]1C(=O)C=CC2=O (stereo not given in full) ?
f

Lab log entry: O=C1c2ccccc2C(=O)C1C(c1ccc([N+](=O)[O-])cc1)C1C(=O)c2ccccc2C1=O — outcome as called in the assay?
f

Hi team, can someone confirm the assay call for OC1OCC(COc2cc(Cl)c(Cl)cc2Cl)OC1O (stereo not given) ?
f

Given COc1ccc(CC(C)N)cc1 (stereo not given) , state the outcome it received in this test.
f

Any idea what this test logged for COc1ccc(/C=N/N=C(\N)NO)cc1F ?
f

Lab log entry: Nc1ccc(C(=O)N/C(=C\c2ccc3c(c2)OCO3)c2nc3ccccc3s2)cc1 — outcome as called in the assay?
f

Give the logged outcome of this assay for the following molecule: COC(=O)c1nc(N)nc(O)c1-c1ccc(Cl)cc1
f
